- Target system: UGT1A1 (Rattus norvegicus, UniProt Q64550)
- Sequence (Q64550 30-535): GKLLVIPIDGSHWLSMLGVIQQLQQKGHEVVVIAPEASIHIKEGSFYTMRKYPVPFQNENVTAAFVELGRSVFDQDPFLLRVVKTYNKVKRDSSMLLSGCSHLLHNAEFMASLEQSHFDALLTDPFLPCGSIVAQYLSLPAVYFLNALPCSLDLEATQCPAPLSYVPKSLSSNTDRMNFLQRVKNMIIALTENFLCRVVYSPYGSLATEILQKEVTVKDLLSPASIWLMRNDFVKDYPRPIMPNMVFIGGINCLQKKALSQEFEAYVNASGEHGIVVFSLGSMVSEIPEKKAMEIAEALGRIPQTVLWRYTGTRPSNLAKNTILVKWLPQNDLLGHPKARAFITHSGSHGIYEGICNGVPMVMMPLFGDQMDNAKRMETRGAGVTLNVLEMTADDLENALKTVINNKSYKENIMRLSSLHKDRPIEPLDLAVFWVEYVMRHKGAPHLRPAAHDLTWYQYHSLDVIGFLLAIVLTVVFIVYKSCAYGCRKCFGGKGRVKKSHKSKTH
- Experiment summary: UGT1A1 inhibition: bilirubin glucuronidation in rat liver microsomes (RLM), enzyme inhibition kinetics
- Run conditions: rat, pH 7.4, probe bilirubin (0.12-1.37 μM), Ki value, bilirubin substrate, extract concentration based on emodin content
Measured attribute: Ki at 10 min (µM)
Provide the reading as a plain figure in µM.

Ask | State the measured Ki at 10 min (UGT1A1 (Rattus norvegicus, UniProt Q64550)) of Cc1cc(O)c2c(c1)C(C1c3cc(C)cc(O)c3C(=O)c3c(OC4OC(CO)C(O)C(O)C4O)cc(O)cc31)c1cc(O)cc(O)c1C2=O (stereo not shown) [Polygonumnolide C2]
Reply | 4.22

---

- Target system: UGT1A1 (Rattus norvegicus)
- Experiment summary: UGT1A1 inhibition: bilirubin glucuronidation in rat liver microsomes (RLM), enzyme inhibition kinetics
- Run conditions: Lineweaver-Burk and Dixon plots
Measured attribute: Mode of inhibition

Structure smiles string	Target system	Measured attribute	Result
O=C1c2cc(O)cc(O)c2C(=O)c2c(O)cc(CO)cc21	UGT1A1 (Rattus norvegicus)	Mode of inhibition	Mixed Type inhibition
O=C(O)c1cc(O)c2c(c1)C(=O)c1cccc(O)c1C2=O	UGT1A1 (Rattus norvegicus)	Mode of inhibition	Mixed Type inhibition

---

- Target system: UGT1A1 (Rattus norvegicus, UniProt Q64550)
- Experiment summary: UGT1A1 inhibition: bilirubin glucuronidation in rat liver microsomes (RLM), enzyme inhibition kinetics
- Run conditions: Lineweaver-Burk and Dixon plots

Molecule	Mode of inhibition
Cc1cc(O)c2c(c1)C(=O)c1cc(O)cc(O)c1C2=O	Competitive inhibition
Cc1cc(O)c2c(c1)C(C1c3cc(C)cc(O)c3C(=O)c3c(O)cc(O)cc31)c1cc(O)cc(O)c1C2=O (stereo not drawn) [Trans-emodin dianthrones]	Competitive inhibition

---

- Target system: UGT1A1 (Rattus norvegicus)
- Experiment summary: UGT1A1 inhibition: bilirubin glucuronidation in rat liver microsomes (RLM), enzyme inhibition kinetics
- Run conditions: Ki value, bilirubin substrate, extract concentration based on emodin content
Catalogue of pKi readings, one per entry.
Interpret pKi as the negative base-10 log of the concentration measured in mol/L.

Worked examples follow.
Compound	pKi
O=C1c2cc(O)cc(O)c2C(=O)c2c(O)cc(CO)cc21 [Citreorosein]	4.73
COc1cc(O)c2c(c1)C(=O)c1cc(C)cc(O)c1C2=O [Physcion]	4.02
Cc1cc(O)c2c(c1)C(C1c3cc(C)cc(O)c3C(=O)c3c(OC4OC(CO)C(O)C(O)C4O)cc(O)cc31)c1cc(O)cc(O)c1C2=O (stereo not shown) [Polygonumnolide C4]	4.11

For the next question, use this compound.
Ask | Specify measured pKi for O=C(O)c1cc(O)c2c(c1)C(=O)c1cccc(O)c1C2=O [Rhein] .
Reply | 3.90

Hey, just so you know, these numbers are from paper PMC5738440.
